Molecular target: PIM3 (human) (UniProt Q86V86)
Assay: radiometric filter-binding kinase assay, Kinase HotSpot
Settings: compound 0.5 µM; ATP 10 µM
MEASURED_PROPERTY: residual activity (%)

MOL: Nc1ncnc2[nH]nc(Nc3ccc(F)cc3)c12
UNIT_LABEL: %
VALUE_MEASURED: 95
//
MOL: c1ccc(-c2n[nH]c3c2oc2ccccc23)cc1
UNIT_LABEL: %
VALUE_MEASURED: 117
//
MOL: Oc1cccc(-c2nc(N3CCOCC3)c3oc4ncccc4c3n2)c1
UNIT_LABEL: %
VALUE_MEASURED: 104
//
MOL: O=C1NC(=O)/C(=C/c2ccc3c(c2)OC(F)(F)O3)S1
UNIT_LABEL: %
VALUE_MEASURED: 39.8
//
MOL: CC(C)N(CCC(=O)c1ccc2ccccc2c1)Cc1ccccc1
UNIT_LABEL: %
VALUE_MEASURED: 105
//
MOL: CC#CC(=O)Nc1cc2c(Nc3ccc(F)c(Cl)c3)ncnc2cn1
UNIT_LABEL: %
VALUE_MEASURED: 89.1
//
MOL: CC[n+]1c(/C=C/N(C)c2ccccc2)n(-c2ccccc2)c2ccc(-c3nc4ccccc4s3)cc21
UNIT_LABEL: %
VALUE_MEASURED: 98.8
//
MOL: CNc1cc2c(Nc3cccc(Br)c3)ncnc2cn1
UNIT_LABEL: %
VALUE_MEASURED: 55.2
//
MOL: O=C1NC(=O)c2c1c1c3ccccc3n3c1c1c2c2ccccc2n1C1CCC3O1
UNIT_LABEL: %
VALUE_MEASURED: 0.238
//
MOL: O=C1Nc2ccc(Cl)cc2/C1=C/c1cc(Cl)c(O)c(Cl)c1
UNIT_LABEL: %
VALUE_MEASURED: 14.5
//
MOL: CC(=O)c1ccc(N2CCOCC2)cc1O
UNIT_LABEL: %
VALUE_MEASURED: 115
//
MOL: O=c1cc(N2CCOCC2)oc2c1ccc1ccccc12
UNIT_LABEL: %
VALUE_MEASURED: 95.4
